Tested on: pentobarbital-anesthetized dog
Test: In Vivo Myocardial Inotropic Activity in Anesthetized Dog (CVAD)
Parameters: species or system dog (adult mongrel)
Settings: Canis lupus familiaris, iv, 3.10 mg/kg IV; read-out: Percent Change Blood Pressure
Procedure: This test procedure is described in the following paragraphs. […] Left ventricular and aortic blood pressures are recorded on a strip chart recorder. Heart rate, using a biotachometer triggered from the R wave of the ECG, and the first derivative of left ventricular blood pressure (dP/dt), obtained with a differentiator amplifier coupled to the corresponding pressure amplifier, are also recorded. […]

ENTRY_SMILES: CCn1nc(C)c2nc(-c3ccncc3)[nH]c(=O)c21
TARGET_SYSTEM: pentobarbital-anesthetized dog
change in vivo at 3.1 mg/kg / %: 8
--
ENTRY_SMILES: Cc1nn(C)c2c(=O)[nH]c(-c3cccc([N+](=O)[O-])c3)nc12
TARGET_SYSTEM: pentobarbital-anesthetized dog
change in vivo at 3.1 mg/kg / %: -12
--
ENTRY_SMILES: CCn1nc(C)c2nc(-c3ccccc3)[nH]c(=O)c21
TARGET_SYSTEM: pentobarbital-anesthetized dog
change in vivo at 3.1 mg/kg / %: 1
--
ENTRY_SMILES: Cc1ccc(-c2nc3c(C)nn(C)c3c(=O)[nH]2)cc1
TARGET_SYSTEM: pentobarbital-anesthetized dog
change in vivo at 3.1 mg/kg / %: 3

###

Tested on: Type 3 Phosphodiesterase
Experiment: Phosphodiesterase (PDE) Inhibition, Type 3 Phosphodiesterase
Assay type: biochemical, bovine (coronary arteries)
Settings: Type 3 PDE, at 10^-5 M, substrate 3H-cAMP 1.0 μM
Each entry gets false (0) if its % Inhibition of hydrolysis of 3H-cAMP stays under 20%, and true (1) if its % Inhibition of hydrolysis of 3H-cAMP is 20% or above.

ENTRY_SMILES: Cc1nn(C)c2c(=O)[nH]c(-c3ccccc3)nc12
CLASS_NAME: true (1)
--
ENTRY_SMILES: COc1ccc(-c2nc3c(C)nn(C)c3c(=O)[nH]2)cc1OC
CLASS_NAME: false (0)
--
ENTRY_SMILES: Cc1nn(C)c2c(=O)[nH]c(-c3ccc(N)cc3)nc12
CLASS_NAME: true (1)
--
ENTRY_SMILES: Cc1nn(C)c2c(=O)[nH]c(-c3ccc(Cl)cc3N)nc12
CLASS_NAME: false (0)
--
ENTRY_SMILES: Cc1nn(C)c2c(=O)[nH]c(-c3cccc(N)c3)nc12
CLASS_NAME: true (1)
--
ENTRY_SMILES: Cc1nn(C)c2c(=O)[nH]c(Cc3ccccc3)nc12
CLASS_NAME: true (1)
--
ENTRY_SMILES: Cc1nn(C)c2c(=O)[nH]c(-c3ccc([N+](=O)[O-])cc3)nc12
CLASS_NAME: false (0)
--
ENTRY_SMILES: COc1ccc(-c2nc3c(C)nn(C)c3c(=O)[nH]2)c(OC)c1
CLASS_NAME: false (0)
--
ENTRY_SMILES: Cc1nn(C)c2c(=O)[nH]c(-c3ccc(Cl)cc3)nc12
CLASS_NAME: false (0)

###

Test system: pentobarbital-anesthetized dog
Experiment: In Vivo Myocardial Inotropic Activity in Anesthetized Dog (CVAD)
Parameters: species or system dog (adult mongrel)
Settings: Canis lupus familiaris, iv, 3.10 mg/kg IV; read-out: Percent Change Myocardial Contractility
METRIC: change in vivo at 3.1 mg/kg (%)

MOLECULE: Cc1ccc(-c2nc3c(C)nn(C)c3c(=O)[nH]2)cc1 [Example 8]
UNIT: %
EXPERIMENTAL_VALUE: 22
//
MOLECULE: Cc1nn(C)c2c(=O)[nH]c(-c3ccc(N)cc3)nc12 [Example 11]
UNIT: %
EXPERIMENTAL_VALUE: 66
//
MOLECULE: Cc1nn(C)c2c(=O)[nH]c(-c3ccc([N+](=O)[O-])cc3)nc12 [Example 9]
UNIT: %
EXPERIMENTAL_VALUE: 2
//
MOLECULE: CCn1nc(C)c2nc(-c3ccccc3)[nH]c(=O)c21 [Example 5]
UNIT: %
EXPERIMENTAL_VALUE: 100
//
MOLECULE: Cc1nn(C)c2c(=O)[nH]c(-c3cccnc3)nc12 [Example 4]
UNIT: %
EXPERIMENTAL_VALUE: 55
//
MOLECULE: Cc1nn(C)c2c(=O)[nH]c(-c3cccc([N+](=O)[O-])c3)nc12 [Example 13]
UNIT: %
EXPERIMENTAL_VALUE: 6
//
MOLECULE: Cc1nn(C)c2c(=O)[nH]c(-c3ccncc3)nc12 [Example 2]
UNIT: %
EXPERIMENTAL_VALUE: 121
//
MOLECULE: Cc1nn(C)c2c(=O)[nH]c(-c3ccccc3)nc12 [Example 6]
UNIT: %
EXPERIMENTAL_VALUE: 45
//
MOLECULE: Cc1nn(C)c2c(=O)[nH]c(Cc3ccccc3)nc12 [Example 1]
UNIT: %
EXPERIMENTAL_VALUE: 42
//
MOLECULE: COc1ccccc1-c1nc2c(C)nn(C)c2c(=O)[nH]1 [Example 14]
UNIT: %
EXPERIMENTAL_VALUE: 34
//
MOLECULE: CCn1nc(C)c2nc(-c3ccncc3)[nH]c(=O)c21 [Example 3]
UNIT: %
EXPERIMENTAL_VALUE: 91
//
MOLECULE: Cc1nn(C)c2c(=O)[nH]c(-c3ccc(Cl)c(Cl)c3)nc12 [Example 15]
UNIT: %
EXPERIMENTAL_VALUE: 13

###

Test system: Type 1 Phosphodiesterase
Test: Phosphodiesterase (PDE) Inhibition, Type 1 Phosphodiesterase
Assay type: biochemical, bovine (coronary arteries)
Conditions: Type 1 PDE, at 10^-5 M, substrate 3H-cAMP 1.0 μM
Source text: The method of Thompson, et al (Thompson, W. J., Terasaki, W. L., Epstein, P. M., Strada, S. J., Adv. Cyclic Nucleotide Res., 10:69-92, 1979), with minor modifications, was used to isolate phosphodiesterases from vascular smooth muscle. Bovine coronary arteries (right, anterior descending, and left circumflex arteries) from hearts obtained from a local slaughterhouse were used for these studies. Arteries from two hearts were used for each isolation. […]
The compounds listed here are annotated with their % Inhibition of hydrolysis of 3H-cAMP.

COMPOUND: Cc1nn(C)c2c(=O)[nH]c(-c3ccc(Cl)cc3N)nc12 [Example 19]
% Inhibition of hydrolysis of 3H-cAMP: 16%

COMPOUND: Cc1nn(C)c2c(=O)[nH]c(-c3ccncc3)nc12 [Example 2]
% Inhibition of hydrolysis of 3H-cAMP: 5%

COMPOUND: Cc1nn(C)c2c(=O)[nH]c(-c3cccc([N+](=O)[O-])c3)nc12 [Example 13]
% Inhibition of hydrolysis of 3H-cAMP: 30%
